- TARGET_UNDER_TEST: 11β-HSD1 (Homo sapiens, UniProt P28845)
- Construct: detecting cortisol generated from cortisterone by human liver microsomes; from tissue; host or cells: human liver microsomes
- Sequence (P28845 whole entry): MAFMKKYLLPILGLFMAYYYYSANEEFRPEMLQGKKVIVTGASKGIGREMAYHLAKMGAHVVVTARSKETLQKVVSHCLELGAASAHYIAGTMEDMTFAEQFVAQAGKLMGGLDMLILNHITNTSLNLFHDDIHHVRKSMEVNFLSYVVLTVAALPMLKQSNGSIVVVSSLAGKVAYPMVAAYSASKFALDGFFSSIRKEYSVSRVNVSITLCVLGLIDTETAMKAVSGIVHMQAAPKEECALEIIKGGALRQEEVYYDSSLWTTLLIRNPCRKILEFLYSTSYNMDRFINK
- ASSAY_INFO: In vitro inhibition of 11β-HSD1, HTRF detection of cortisol generated from cortisone by human liver microsomes
- Assay type: biochemical
- SETUP_CONDITIONS: 11β-HSD IC50 (nM), 1 hour at 37° C., pH 6.0, NADPH 200 μM, cortisone 80 nM, inhibition relative to carbenoxolone signal
MEASUREMENT_LABEL: IC50
Give me the value, and tack the unit on after it.

Consider the reported IC50 for these compounds:
COMPOUND: C[C@@H]1[C@H]2Cc3ccc(CN)cc3[C@]1(C)CCN2C(=O)c1ccc2nc[nH]c2c1
DATA_VALUE: 1720 nM
//
COMPOUND: Cc1nc(-c2ccc3c(c2)CC2N(C(=O)c4ccc5[nH]cnc5c4)CCC3(C)C2(C)C)no1 (stereo not shown)
DATA_VALUE: 603 nM
//
COMPOUND: N#CC12CCN(C(=O)c3ccc4ncsc4c3)C(Cc3ccc(O)cc31)C2 (stereo not shown)
DATA_VALUE: 8910 nM

Moving on to another compound below.
11β-HSD1 (Homo sapiens, UniProt P28845) IC50 of "CC1(C)[C@H]2Cc3cc4nn[nH]c4cc3[C@]1(C)CCN2C(=O)c1ccc2nc[nH]c2c1" is 22 nM

* * *

Listed here are compounds together with their documented IC50.
- TARGET_UNDER_TEST: 11β-HSD1 (Homo sapiens, UniProt P28845)
- Construct: detecting cortisol generated from cortisterone by human liver microsomes; from tissue; host or cells: human liver microsomes
- ASSAY_INFO: In vitro inhibition of 11β-HSD1, HTRF detection of cortisol generated from cortisone by human liver microsomes
- Type: biochemical
- SETUP_CONDITIONS: 11β-HSD IC50 (nM), 1 hour at 37° C., pH 6.0, NADPH 200 μM, cortisone 80 nM, inhibition relative to carbenoxolone signal
Give the value, in units of nM, as a plain number.

COMPOUND: CC1(C)[C@H]2Cc3cc4nc(-c5cnccn5)[nH]c4cc3[C@]1(C)CCN2C(=O)c1ccc2nc[nH]c2c1 [Example 266]
MEASUREMENT_UNIT: nM
IC50: 42
--
COMPOUND: CN(C)C(=O)c1ccc2c(c1)CC1N(C(=O)c3ccc4nc[nH]c4c3)CCC2(C)C1(C)C (stereo not shown) [Example 161]
MEASUREMENT_UNIT: nM
IC50: 1750
--
COMPOUND: CC1(C)[C@H]2Cc3c(O)cccc3[C@]1(C)CCN2C(=O)c1ccccc1Cl [Example 2]
MEASUREMENT_UNIT: nM
IC50: 741
--
COMPOUND: CC1(C)[C@H]2Cc3ccccc3[C@]1(C)CCN2C(=O)c1cc(F)c(O)c(F)c1 [Example 335]
MEASUREMENT_UNIT: nM
IC50: 115
--
COMPOUND: Cc1cnc(-c2nc3cc4c(cc3o2)C[C@H]2N(C(=O)c3ccc5nc[nH]c5c3)CC[C@]4(C)C2(C)C)cn1 [Example 313]
MEASUREMENT_UNIT: nM
IC50: 61
--
COMPOUND: CC1(C)[C@H]2Cc3c(O)cccc3[C@]1(C)CCN2C(=O)c1ccnn1-c1ccccc1 [Example 216]
MEASUREMENT_UNIT: nM
IC50: 1720

According to the records, this compound C[C@H]1[C@H]2Cc3ccc(O)cc3[C@]1(C)CCN2C(=O)c1ccco1 [Example 113] displays IC50 of 3630

Query C[C@@H]1[C@H]2Cc3ccc(C(C)(C)O)cc3[C@]1(C)CCN2C(=O)c1ccc2nc[nH]c2c1 [Example 340] yields IC50 of 67

The compound listed as CCC12CCN(C(=O)c3ccc4nc[nH]c4c3)C(Cc3ccc(O)cc31)C2(C)C (stereo not shown) [Example 89] shows IC50 equal to 62

# compound CC1(C)[C@H]2Cc3c(O)cccc3[C@]1(C)CCN2C(=O)c1ccc(CN2CCOCC2)cc1 [Example 24] ; its IC50 = 134

Looking up Cc1nccc(-c2ccc3c(c2)[C@]2(C)CCN(C(=O)c4ccc5nc[nH]c5c4)[C@H](C3)[C@H]2C)n1 [Example 262] , I found its IC50 recorded as 73

For this compound ( CC1(C)[C@H]2Cc3c(C#N)cccc3[C@]1(C)CCN2C(=O)c1ccc2nc[nH]c2c1 [Example 93] ), measured IC50 is 2060

According to the records, this compound CC1(C)[C@H]2Cc3c(O)cccc3[C@]1(C)CCN2C(=O)c1ccc(CN2CC(O)C2)cc1 [Example 187] displays IC50 of 1960

Summary for this compound, CC(C)(C)c1nc2cc3c(cc2o1)C[C@H]1N(C(=O)c2ccc4nc[nH]c4c2)CC[C@]3(C)C1(C)C [Example 312] : IC50 is 103

The measured IC50 associated with CC1(C)C2Cc3ccccc3C1(O)CCN2C(=O)c1ccc2nc[nH]c2c1 (stereo not shown) [Example 57] reads 137

response.value for Cc1cccc(C(=O)N2CC[C@@]3(C)c4cccc(O)c4C[C@@H]2C3(C)C)c1 [Example 7] (field: IC50) = 262

Record CC1(C)[C@H]2Cc3c(O)cccc3[C@]1(C)CCN2C(=O)c1ccncc1 [Example 126] , field IC50: 1270

// sample CC1(C)[C@H]2Cc3cc4nc([C@@H]5CCCO5)[nH]c4cc3[C@]1(C)CCN2C(=O)c1ccc2nc[nH]c2c1 [Example 275] , its IC50 was 25

* * *

- TARGET_UNDER_TEST: 11β-HSD1 (Homo sapiens)
- Construct: detecting cortisol generated from cortisterone by human liver microsomes; from tissue; host or cells: human liver microsomes
- ASSAY_INFO: In vitro inhibition of 11β-HSD1, HTRF detection of cortisol generated from cortisone by human liver microsomes
- Format: biochemical
- SETUP_CONDITIONS: 11β-HSD IC50 (nM), 1 hour at 37° C., pH 6.0, NADPH 200 μM, cortisone 80 nM, inhibition relative to carbenoxolone signal
MEASUREMENT_LABEL: log10 of IC50 (log10 of the value in nM)
Friendly reminder: values = log10 of IC50, unit nM.

MOLECULE: CC1(C)[C@H]2Cc3c(O)cccc3[C@]1(C)CCN2C(=O)c1ccccc1 [Example 1]
DATA_VALUE: 2.45

MOLECULE: CC1(C)[C@H]2Cc3ccccc3[C@]1(C)CCN2C(=O)c1cc(F)c(F)c(F)c1 [Example 297]
DATA_VALUE: 2.95

MOLECULE: CC1(C)[C@H]2Cc3c(O)cccc3[C@]1(C)CCN2C(=O)c1ccc2cc[nH]c2c1 [Example 31]
DATA_VALUE: 1.94

MOLECULE: CC(=O)c1ccc2c(c1)[C@]1(C)CCN(C(=O)c3ccc4nc[nH]c4c3)[C@H](C2)C1(C)C [Example 204]
DATA_VALUE: 1.43

MOLECULE: CC1(C)[C@H]2Cc3c(O)cccc3[C@]1(C)CCN2C(=O)c1c[nH]c2ccccc12 [Example 118]
DATA_VALUE: 1.86

GET /value?item= Cc1nc2c3c(ccc2o1)C[C@@H]1[C@@H](C)[C@@]3(C)CCN1C(=O)c1ccc2nc[nH]c2c1 [Example 300] &field=log10 of IC50 returns 2.06

So, CC1(C)[C@H]2Cc3ccccc3[C@]1(C)CCN2C(=O)c1ccc2c(c1)CC(=O)N2 [Example 298] ? Its log10 of IC50 was 2.00

Quick note, log10 of IC50 for CC12CCN(C(=O)c3ccc4nc[nH]c4c3)C(Cc3cc(C#N)ccc31)C2(C)C (centres unmarked) [Example 96] landed at 1.98

* * *

compounds and their reported IC50
- TARGET_UNDER_TEST: 11β-HSD1 (Homo sapiens)
- Construct: detecting cortisol generated from cortisterone by human liver microsomes; from tissue; host or cells: human liver microsomes
- ASSAY_INFO: In vitro inhibition of 11β-HSD1, HTRF detection of cortisol generated from cortisone by human liver microsomes
- Assay type: biochemical
- SETUP_CONDITIONS: 11β-HSD IC50 (nM), 1 hour at 37° C., pH 6.0, NADPH 200 μM, cortisone 80 nM, inhibition relative to carbenoxolone signal
Write the number in nM without appending the unit.

Look over these answered cases.
COMPOUND: CNC(=O)c1ccc(C(=O)N2CC[C@@]3(C)c4cccc(O)c4C[C@@H]2C3(C)C)cc1
IC50 / nM: 3660
//
COMPOUND: COC(=O)c1cc(Cl)cc(C(=O)N2CC[C@@]3(C)c4cccc(O)c4C[C@@H]2C3(C)C)c1
IC50 / nM: 4530
//
COMPOUND: CC(=O)c1ccc(C(=O)N2CC[C@@]3(C)c4cccc(O)c4C[C@@H]2C3(C)C)cc1
IC50 / nM: 3680
//
COMPOUND: CNc1ccc(C(=O)N2CC[C@@]3(C)c4cccc(O)c4C[C@@H]2C3(C)C)cc1
IC50 / nM: 364
//
COMPOUND: Cc1cnc(-c2nc3cc4c(cc3[nH]2)[C@]2(C)CCN(C(=O)c3ccc5nc[nH]c5c3)[C@H](C4)C2(C)C)cn1
IC50 / nM: 34
//
COMPOUND: CC1C2Cc3ccc(O)cc3C1(C)CCN2C(=O)c1ccccc1 (centres unmarked)
IC50 / nM: 1330
//
COMPOUND: C[C@@H]1[C@H]2Cc3ccc(-c4ccncn4)cc3[C@]1(C)CCN2C(=O)c1ccc2nc[nH]c2c1
IC50 / nM: 78

For reference, reported IC50 for "Cn1cc(C(=O)N2CC[C@@]3(C)c4ccccc4C[C@@H]2C3(C)C)c2ccccc21" stands at 222
